These measurements were taken from ChEMBL document CHEMBL5033991.

Test system: IMR-90
Test: Cytotoxicity against human IMR-90 cells assessed as reduction in cell viability at MIC measured after 48 hrs by MTT assay
Format: cell-based
Settings: imr-90, 48 h
outcome measure: Activity

In [3]: df
Out[3]:
                                smiles_text  observed_value
0  NC(=O)c1c(F)ccc(OCCNc2cccc(C(F)(F)F)c2)c1F       Non-Toxic
1  NC(=O)c1c(F)ccc(OCc2cccc(C(F)(F)F)c2)c1F       Non-Toxic
2        NC(=O)c1c(F)ccc(OCc2cccc(Cl)c2)c1F       Non-Toxic
3  CCC[C@H](COc1ccc(F)c(C(N)=O)c1F)Nc1cccc(C(F)(F)F)c1       Non-Toxic
